Task for the reader: assign each of the following compounds its reported IC50.
- Experimental Target: nAChRs comprised of α4 and β2 subunits (labelled by 3H-cytisine) (Rattus norvegicus, UniProt P09483+P12390)
- Sequence (P09483 31-630): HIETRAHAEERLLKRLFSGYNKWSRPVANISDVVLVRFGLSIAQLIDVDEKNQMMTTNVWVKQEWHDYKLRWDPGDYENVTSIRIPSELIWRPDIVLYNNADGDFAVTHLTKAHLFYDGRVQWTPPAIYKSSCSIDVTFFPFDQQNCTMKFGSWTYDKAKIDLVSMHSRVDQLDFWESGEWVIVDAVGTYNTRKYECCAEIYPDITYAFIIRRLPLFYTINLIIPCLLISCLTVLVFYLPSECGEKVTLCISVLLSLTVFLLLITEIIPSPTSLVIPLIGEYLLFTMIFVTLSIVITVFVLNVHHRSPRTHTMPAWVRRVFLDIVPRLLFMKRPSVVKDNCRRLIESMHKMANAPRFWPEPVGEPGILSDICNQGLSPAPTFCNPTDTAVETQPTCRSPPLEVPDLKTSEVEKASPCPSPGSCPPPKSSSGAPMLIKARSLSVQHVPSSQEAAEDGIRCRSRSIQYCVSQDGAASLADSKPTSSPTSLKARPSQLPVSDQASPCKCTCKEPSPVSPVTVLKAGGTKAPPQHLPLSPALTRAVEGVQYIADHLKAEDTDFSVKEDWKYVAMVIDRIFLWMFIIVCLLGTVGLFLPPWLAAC
- Sequence (P12390 25-500): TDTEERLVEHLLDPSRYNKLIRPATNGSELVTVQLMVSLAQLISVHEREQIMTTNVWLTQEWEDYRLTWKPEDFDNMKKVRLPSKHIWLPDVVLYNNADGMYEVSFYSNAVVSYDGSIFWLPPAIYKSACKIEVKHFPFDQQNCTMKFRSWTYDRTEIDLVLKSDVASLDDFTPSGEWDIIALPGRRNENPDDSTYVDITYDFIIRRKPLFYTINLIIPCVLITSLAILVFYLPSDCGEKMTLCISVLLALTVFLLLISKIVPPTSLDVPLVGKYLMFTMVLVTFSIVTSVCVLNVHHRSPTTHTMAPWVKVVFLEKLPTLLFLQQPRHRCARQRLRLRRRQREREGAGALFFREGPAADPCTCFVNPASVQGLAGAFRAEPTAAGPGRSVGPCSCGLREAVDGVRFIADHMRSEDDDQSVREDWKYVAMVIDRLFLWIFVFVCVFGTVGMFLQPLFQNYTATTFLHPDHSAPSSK
- Procedure Summary: In vitro inhibition of 3H-cytisine binding
- Condition Description: rat cerebral cortex homogenate, 1 nM 3H-cytisine, 90 min at 2° C.; read-out: 3H-cytisine IC50
- Method: In vitro inhibition of ^3H-cytisine binding The predominant subtype with high affinity for nicotine is comprised of α4 and β2 subunits. nAChRs of the latter type can selectively be labelled by the nicotine modulator ^3H-cytisine. […] Assay: Aliquots of 500 μl homogenate are added to 25 μl of test solution and 25 μl of ^3H-cytisine (1 nM, final concentration), mixed and incubated for 90 min at 2° C. Non-specific binding is determined using (−)-nicotine (100 μM, final concentration). […]
Numbers only, in µM.

CN1C2C=C(c3ccc(Cl)nc3)CC1CC2 (racemic)    0.02
CN1C2C=C(c3oc4ccccc4c3Br)CC1CC2 (racemic)    30
CN1C2C=C(c3sccc3Br)CC1CC2 (racemic)    2.2

Now take the following compound into account.
Input line: Name the recorded IC50 for CC(=O)Nc1cccc(C2=CC3CCC(C2)N3C)c1.O=C(O)/C=C/C(=O)O (racemic) .
Output line: 17

---

Task for the reader: assign each of the following molecules its reported IC50.
- Experimental Target: nAChRs comprised of α4 and β2 subunits (labelled by 3H-cytisine) (Rattus norvegicus, UniProt P09483+P12390)
- Procedure Summary: In vitro inhibition of 3H-cytisine binding
Numbers only, in µM.

CN1C2C=C(c3cccnc3)CC1CC2 (racemic)    0.022

Now take the following molecule into account.
Input line: Name the recorded IC50 for CN1C2C=C(c3cccc(N)c3)CC1CC2.O=C(O)/C=C/C(=O)O (racemic) .
Output line: 0.03

---

Counter-ions that a name gives are not always drawn.
Task for the reader: assign each of the following compounds its reported melting point.

CN1C2C=C(c3oc4ccccc4c3Br)CC1CC2 (racemic) (as salt: fumaric acid salt)    161.4 to 163.3 °C

Dear reader, for each entry below, please note its melting point.
1. CN1C2C=C(c3nc4ccccc4s3)CC1CC2.O=C(O)/C=C/C(=O)O (racemic)
2. CN1C2C=C(c3nccs3)CC1CC2.O=C(O)/C=C/C(=O)O (racemic)
3. CN1C2C=C(c3cnc4ccccc4c3)CC1CC2.O=C(O)/C=C/C(=O)O (racemic)
4. CN1C2C=C(c3coc4ccccc34)CC1CC2.O=C(O)/C=C/C(=O)O (racemic)
5. CN1C2C=C(c3cccc(N)c3)CC1CC2.O=C(O)/C=C/C(=O)O (racemic)
6. CCN1C2C=C(c3cc4ccccc4o3)CC1CC2.O=C(O)/C=C/C(=O)O (racemic)

Output line:
195 to 196.8 °C
196.3 to 198.5 °C
140.8 to 143.8 °C
140.9 to 142.8 °C
195.3 to 196.9 °C
197 to 203 °C

Input line: Name the recorded melting point for C1=C(c2cc3ccccc3o2)CC2CCC1N2 (racemic) (as salt: fumaric acid salt) .
Output line: 201 to 204 °C

---

- Experimental Target: nAChR labelled by 3H-α-bungarotoxin (α7 subunits) (Rattus norvegicus, UniProt Q05941)
- Sequence (Q05941 23-502): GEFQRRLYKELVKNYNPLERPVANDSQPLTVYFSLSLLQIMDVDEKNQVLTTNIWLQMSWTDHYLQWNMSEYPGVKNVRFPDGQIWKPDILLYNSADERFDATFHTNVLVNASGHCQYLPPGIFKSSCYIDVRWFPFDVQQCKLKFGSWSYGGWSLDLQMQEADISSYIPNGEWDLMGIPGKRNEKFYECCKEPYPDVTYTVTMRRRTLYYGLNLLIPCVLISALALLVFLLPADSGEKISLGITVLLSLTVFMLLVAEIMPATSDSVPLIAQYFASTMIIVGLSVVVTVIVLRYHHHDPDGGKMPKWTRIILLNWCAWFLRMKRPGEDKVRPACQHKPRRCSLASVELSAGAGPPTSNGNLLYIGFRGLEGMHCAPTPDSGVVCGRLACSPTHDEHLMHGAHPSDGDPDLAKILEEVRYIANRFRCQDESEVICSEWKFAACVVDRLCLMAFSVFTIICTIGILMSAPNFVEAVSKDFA
- Procedure Summary: biochemical
- Assay type: binding
- Condition Description: read-out: 3H-α-bungarotoxin IC50
Readout: IC50 (nM)
Answers are plain numbers, in nM.

Worked cases, answers included:
CN1C2C=C(c3coc4ccccc34)CC1CC2.O=C(O)/C=C/C(=O)O (racemic) [Compound 4a]    3500
CN1C2C=C(c3cc4ccccc4o3)CC1CC2 (racemic) [Compound 1d]    170
CN1C2C=C(c3oc4ccccc4c3Br)CC1CC2 (racemic) [Compound 2f]    1300
CN1C2C=C(c3cnc4ccccc4c3)CC1CC2.O=C(O)/C=C/C(=O)O (racemic) [Compound 3a]    1440
CCN1C2C=C(c3cc4ccccc4o3)CC1CC2.O=C(O)/C=C/C(=O)O (racemic) [Compound 3e]    510

Now take the following compound into account.
Input line: Name the recorded IC50 for CN1C2C=C(c3cc4ccccc4s3)CC1CC2 (racemic) [Compound 2c] .
Output line: 100
